meta.source: patent US5182284A

- tested target: 5-Lipoxygenase (Cavia porcellus, UniProt A0A286X958)
- Construct: the polymorphonuclear leukocytes were collected and the cytosol fraction was obtained as an enzyme source; endogenous in cells
- Sequence (A0A286X958 1-674): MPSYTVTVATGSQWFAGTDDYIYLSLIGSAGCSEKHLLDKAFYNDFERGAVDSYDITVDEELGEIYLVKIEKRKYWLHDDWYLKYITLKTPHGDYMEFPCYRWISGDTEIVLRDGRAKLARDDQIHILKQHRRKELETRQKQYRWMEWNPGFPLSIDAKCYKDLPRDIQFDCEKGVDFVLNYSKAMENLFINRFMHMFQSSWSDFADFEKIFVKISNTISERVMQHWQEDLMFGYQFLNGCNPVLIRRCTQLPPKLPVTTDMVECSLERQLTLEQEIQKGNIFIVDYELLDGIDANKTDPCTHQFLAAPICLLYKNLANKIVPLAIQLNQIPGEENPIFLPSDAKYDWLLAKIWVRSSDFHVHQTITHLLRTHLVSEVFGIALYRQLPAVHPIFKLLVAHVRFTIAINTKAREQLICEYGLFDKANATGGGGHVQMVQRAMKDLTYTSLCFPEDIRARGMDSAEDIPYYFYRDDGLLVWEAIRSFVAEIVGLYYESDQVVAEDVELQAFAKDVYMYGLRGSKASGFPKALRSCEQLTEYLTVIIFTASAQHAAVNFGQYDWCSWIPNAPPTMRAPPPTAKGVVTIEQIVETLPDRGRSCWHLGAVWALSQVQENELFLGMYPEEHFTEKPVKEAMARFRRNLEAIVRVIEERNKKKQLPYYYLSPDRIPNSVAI
- test: 5-Lipoxygenase inhibitory effect
- applied conditions: cytosol fraction of guinea pig polymorphonuclear leukocytes, 14C-arachidonic acid, 5-hydroxyeicosatetraenoic acid formation
pIC50: −log10 of the molar value.
pIC50 below 7 gives N; pIC50 at or above it gives Y.

Would you please look over these solved cases?
O=C(Cc1ccc(O)c(O)c1)OC(CN1CCN(CCCCCCCCCCO)CC1)c1ccccc1 (stereo not drawn) [Compound 8] :: N
CCCCCCCCCCN1CCN(C(=O)/C=C/c2ccc(O)c(O)c2)CC1 [Compound 35] :: Y

Lab note: next molecule to report on.
### Prompt Is it the case that CCCCCCCCCCN1CCN(C(=O)CNC(=O)/C=C/c2ccc(O)c(O)c2)CC1 [Compound 23] has pIC50 reaching or exceeding 7?
### Response Y

---

- tested target: Cyclooxygenase
- test: Cyclooxygenase inhibitory effect
- applied conditions: seminal vesicular gland microsomes, 14C-arachidonic acid, prostaglandin E2 formation
parameter measured: pIC50
Schema: pIC50 number; meaning minus log10 of the concentration expressed in molar units.

Previously resolved entries follow.
CCCCCCCCCCN1CCN(C(=O)/C=C/c2ccc(O)c(O)c2)CC1 :: 5.08
CCCCCCCCCCN1CCN(CC(OC(=O)/C=C/c2ccc(O)c(O)c2)c2ccccc2)CC1 (stereo not drawn) :: 5.37
O=C(/C=C/c1ccc(O)c(O)c1)OC(CN1CCN(CCCCCCCCCCO)CC1)c1ccc(Cl)cc1 (stereo not drawn) :: 5.47
CCCCCCCCN1CCN(C(=O)/C=C/c2ccc(O)c(O)c2)CC1 :: 5.54

### Prompt Give the measured pIC50 of O=C(Cc1ccc(O)c(O)c1)OC(CN1CCN(CCCCCCCCCCO)CC1)c1ccccc1 (stereo not drawn) .
### Response 5.00

### Prompt Also CCCCCCCCCCN1CCN(C(=O)CNC(=O)/C=C/c2ccc(O)c(O)c2)CC1 , if possible.
### Response 5.38

---

- tested target: 5-Lipoxygenase (Cavia porcellus)
- Construct: the polymorphonuclear leukocytes were collected and the cytosol fraction was obtained as an enzyme source; endogenous in cells
- test: 5-Lipoxygenase inhibitory effect
- applied conditions: cytosol fraction of guinea pig polymorphonuclear leukocytes, 14C-arachidonic acid, 5-hydroxyeicosatetraenoic acid formation
parameter measured: IC50 (nM)
Record the value in nM, omitting the unit from your answer.

Previously resolved entries follow.
O=C(/C=C/c1ccc(O)c(O)c1)OC(CN1CCN(CCCCCCCCCCO)CC1)c1ccc(Cl)cc1 (stereo not drawn) :: 90
CCCCCCCCN1CCN(C(=O)/C=C/c2ccc(O)c(O)c2)CC1 :: 120

Now consider a different compound.
### Prompt Give the measured IC50 of CCCCCCCCCCN1CCN(CC(OC(=O)/C=C/c2ccc(O)c(O)c2)c2ccccc2)CC1 (stereo not drawn) .
### Response 80
